Source of measurements: ChEMBL document CHEMBL4765487

Test: Cmax in BALB/c mouse at 5 mg/kg, po measured during 0.083 to 24 hrs post dose by LC-MS/MS analysis
Type: ADME, organism-based
Set-up: route oral, time 0.083-24 hrs, dose 5 mg/kg
Settings: in vivo
Readout Kind: Cmax (ng/mL)
Numbers only, in ng/mL.

Sample CC(C)(CO)NC(=O)c1cc(C(C)(C)C)n(-c2ccc(C(F)(F)F)cn2)n1 — what was its Cmax?
603

* * *

Assay: in vitro
Settings: human, liver microsomes
Would you mind telling me the reported log10 microsomal CLint at 1 µM of each entry?
Recorded microsomal CLint at 1 µM (log10, µL/min/mg)

These recorded examples may help you get a feel for the data.
chemical_string=CCCCCn1nc(C(=O)N[C@@H](C(=O)OC)C(C)C)cc1C(C)(C)C readout_kind="log10 microsomal CLint at 1 µM" test_result=2.07
chemical_string=CCCCCn1nc(C(=O)NC(C)(C)CO)cc1C(C)(C)C readout_kind="log10 microsomal CLint at 1 µM" test_result=1.80
chemical_string=C[C@]12CC[C@H]3[C@@H](CCC4=CC(=O)CC[C@@]43C)[C@@H]1CC[C@@H]2O readout_kind="log10 microsomal CLint at 1 µM" test_result=1.87

Provide the reported log10 microsomal CLint at 1 µM of each entry below, same order.
1. CC(C)(CO)NC(=O)c1cc(C(C)(C)C)n(-c2ccc(C(F)(F)F)cn2)n1
2. CCCCCn1nc(C(=O)NC(C)(C)CO)c(N)c1C(C)(C)C
3. O=C(O)Cc1ccccc1Nc1c(Cl)cccc1Cl

1.09
2.02
2.11

# log10 microsomal CLint at 1 µM lookup, item CCCCCn1nc(C(=O)NC(C)(C)CO)cc1-c1ccc(F)cc1F
1.81

* * *

Assay: Clearance in BALB/c mouse at 5 mg/kg, po measured during 0.083 to 24 hrs post dose by LC-MS/MS analysis
Type: ADME, organism-based
Conditions: in vivo, time 0.083-24 hrs
Readout Kind: CL/F (mL/min/kg)
Answers are plain numbers, in mL/min/kg.

Look up CL/F for this compound: CC(C)(CO)NC(=O)c1cc(C(C)(C)C)n(-c2ccc(C(F)(F)F)cn2)n1
51.7

* * *

Please provide measured CLint scaled at 1 µM for the entries that follow.
Test: in vitro
Settings: human, liver
Write the numeric value and append its unit.

Take a look at these entries with their results.
chemical_string=CC(C)(CO)NC(=O)c1cc(C(C)(C)C)n(-c2ccc(C(F)(F)F)cn2)n1 readout_kind="CLint scaled at 1 µM" test_result="11.1 mL/min/kg"
chemical_string=CCCCCn1nc(C(=O)N[C@@H](C(=O)OC)C(C)C)cc1C(C)(C)C readout_kind="CLint scaled at 1 µM" test_result="105 mL/min/kg"
chemical_string=O=C(O)Cc1ccccc1Nc1c(Cl)cccc1Cl readout_kind="CLint scaled at 1 µM" test_result="116 mL/min/kg"
chemical_string=C[C@]12CC[C@H]3[C@@H](CCC4=CC(=O)CC[C@@]43C)[C@@H]1CC[C@@H]2O readout_kind="CLint scaled at 1 µM" test_result="66.3 mL/min/kg"
chemical_string=CCCCCn1nc(C(=O)NC(C)(C)CO)cc1-c1ccc(F)cc1F readout_kind="CLint scaled at 1 µM" test_result="58.2 mL/min/kg"

Fill in CLint scaled at 1 µM for each of the 2 compounds listed.
1. CCCCCn1nc(C(=O)NC(C)(C)CO)c(N)c1C(C)(C)C
2. CCCCCn1nc(C(=O)NC(C)(C)CO)cc1C(C)(C)C

1: 94 mL/min/kg; 2: 56.1 mL/min/kg
